# Tested on: H358 cells
# method_notes: Cell viability assay (CELLTITER-GLO), H358 cells
# Assay type: cell-based
# assay_setup: Table 4; 3 days
property_measured: Inhibition of H358 cells, IC50 (class)

Challenge: # input molecule: CC(C)/C=C(\C#N)C(=O)N1CCN(c2ncnc3c(F)c(-c4c(F)cccc4OCCCCCCCN4CCC(c5cc(F)cc6c5CN(C5CCC(=O)NC5=O)C6=O)CC4)c(Cl)cc23)CC1 (stereo not drawn) [Compound 80] ; wanted: its Inhibition of H358 cells, IC50 (class)
Response given: B′

Challenge: Quick one: Inhibition of H358 cells, IC50 (class) of C=CC(=O)N1CCN(c2ncnc3c(F)c(-c4cc(OCCCCCCCN5CCC(c6cc(F)cc7c6CN(C6CCC(=O)NC6=O)C7=O)CC5)ccc4F)c(Cl)cc23)CC1 (stereo not drawn) [Compound 90] ?
Response given: B′

Challenge: Query (molecule): CCC(=O)N1CCN(c2ncnc3c(F)c(-c4c(F)cccc4OCCc4cn(CCN5CCC(c6cc(F)cc7c6CN(C6CCC(=O)NC6=O)C7=O)CC5)nn4)c(Cl)cc23)CC1 (stereo not drawn) [Compound 92] ; field requested: Inhibition of H358 cells, IC50 (class)
Response given: C′

---

# Tested on: MOLM-13 cells
# method_notes: Cell viability assay (CELLTITER-GLO), MOLM-13 cells
# Format: cell-based
# assay_setup: Homo sapiens, MOLM-13, 72 h; Table 2; compound at 10 μM, 3 days; read-out: Effect on MOLM-13 cell viability (% DMSO)
# Experimental: MOLM-13 cells, MV-4-11 cells, H23, and H358 cells were independently cultured in RPMI 1640 media supplemented with 10% fetal bovine serum, streptomycin and penicillin. The cells were plated in white walled 96-well plates at 4,000 cells/well. The cells were incubated in DMSO (control) or a compound for 3 days at 37° C. under 5% CO2. […] After a 10 min incubation with shaking, luminescence was measured using an ENVISION® multimode plate reader. […]
viability at 10 µM by entry:

Challenge: Look up viability at 10 µM: C=C(Cl)C(=O)N1CCN(c2ncnc3c(F)c(-c4c(F)cccc4OC[C@H]4CC[C@@H](CN5CCC(c6cc(F)cc7c6CN(C6CCC(=O)NC6=O)C7=O)CC5)CC4)c(Cl)cc23)CC1 (some centres unmarked)
Response given: < 10%

Challenge: Can you share its viability at 10 µM? I mean this compound: C=C(F)C(=O)N1CCN(c2ncnc3c(F)c(-c4c(F)cccc4OCCCCCCCN4CCC(c5cc(F)cc6c5CN(C5CCC(=O)NC5=O)C6=O)CC4)c(Cl)cc23)CC1 (centres unmarked)
Response given: < 10%

Challenge: I have this compound here, C=CC(=O)N1CCN(c2nc(OC[C@@H]3CCCN3C)nc3c(F)c(-c4c(F)cccc4OCCCCCCCN4CCC(c5cc(F)cc6c5CN(C5CCC(=O)NC5=O)C6=O)CC4)c(Cl)cc23)CC1 (some centres unmarked) , and I need its recorded viability at 10 µM.
Response given: < 10%

Challenge: Query: viability at 10 µM; subject: C=CC(=O)N1CC(c2nc3ccc(-c4cc(O)cc5ccccc45)cc3c(=O)n2CCOCCOCCNCc2ccc(OCc3scc4c3CN([C@H]3CCC(=O)NC3=O)C4=O)cc2)C1
Response given: ≥ 50%

Challenge: What value of viability at 10 µM has been reported for the following compound? C=CC(=O)N1CC(c2nc3ccc(-c4cc(O)cc5ccccc45)cc3c(=O)n2CCOCCNCc2ccc(OCc3scc4c3CN(C3CCC(=O)NC3=O)C4=O)cc2)C1 (centres unmarked)
Response given: ≥ 50%

Challenge: So what does the record say about viability at 10 µM for C=C(Cl)C(=O)N1CCN(c2ncnc3cc(-c4c(F)cccc4OCCCCCCCN4CCC(c5cccc6c5CN(C5CCC(=O)NC5=O)C6=O)CC4)c(Cl)cc23)CC1 (centres unmarked) ?
Response given: < 10%

Challenge: Give its viability at 10 µM value. Item: CCC(=O)N1CCN(c2ncnc3c(F)c(-c4c(F)cccc4OCCOCc4ccc(COCCN5CCC(c6cc(F)cc7c6CN(C6CCC(=O)NC6=O)C7=O)CC5)cc4)c(Cl)cc23)CC1 (centres unmarked)
Response given: < 10%

Challenge: Item under review: C=CC(=O)N1CCN(c2ncnc3c(F)c(-c4c(F)cccc4OCCCCCCCNCc4ccc(OCc5scc6c5CN([C@H]5CCC(=O)NC5=O)C6=O)cc4)c(Cl)cc23)CC1 . Reported viability at 10 µM?
Response given: < 10%

Challenge: Query: viability at 10 µM; subject: CCC(=O)N1CCN(c2ncnc3c(F)c(-c4c(F)cccc4OCCOCCOCCOCCNc4cccc5c4C(=O)N(C4CCC(=O)NC4=O)C5=O)c(Cl)cc23)CC1 (centres unmarked)
Response given: ≥ 50%

Challenge: Need viability at 10 µM, item C=CC(=O)N1CCN(c2ncnc3c(F)c(-c4c(F)cccc4OCCOCCOCCOCCNc4cccc5c4C(=O)N(C4CCC(=O)NC4=O)C5=O)c(Cl)cc23)CC1 (centres unmarked)
Response given: < 10%

---
Challenge: Look up viability at 10 µM for this compound: C=C(Cl)C(=O)N1CCN(c2ncnc3c(F)c(-c4c(F)cccc4OCCCCCCCN4CCC(c5cc(F)cc6c5CN(C5CCC(=O)NC5=O)C6=O)C4)c(Cl)cc23)CC1 (centres unmarked)
Response given: < 10%

Challenge: What viability at 10 µM value was documented for this compound, CCC(=O)N1CCN(c2ncnc3c(F)c(-c4c(F)cccc4OCCNCC(=O)N4CCC(C#Cc5cccc6c5CN(C5CCC(=O)NC5=O)C6=O)CC4)c(Cl)cc23)CC1 (centres unmarked) ?
Response given: ≥ 50%

Challenge: Please look up its viability at 10 µM: CC/C=C(\Cl)C(=O)N1CCN(c2ncnc3c(F)c(-c4c(F)cccc4OCCCCCCCN4CCC(c5cc(F)cc6c5CN(C5CCC(=O)NC5=O)C6=O)CC4)c(Cl)cc23)CC1 (centres unmarked)
Response given: 25 to 50%

Challenge: Quick one: viability at 10 µM for C=C(Cl)C(=O)N1CCN(c2nc(OCCN(C)C)nc3c(F)c(-c4c(F)cccc4OCCCCCCCN4CCC(c5cc(F)cc6c5CN(C5CCC(=O)NC5=O)C6=O)CC4)c(Cl)cc23)CC1 (centres unmarked) ?
Response given: < 10%

Challenge: Query: viability at 10 µM; subject: C=CC(=O)N1CC(c2nc3ccc(-c4cc(O)cc5ccccc45)cc3c(=O)n2CCNCc2ccc(OCc3scc4c3CN([C@H]3CCC(=O)NC3=O)C4=O)cc2)C1
Response given: ≥ 50%

Challenge: viability at 10 µM for C=C(Cl)C(=O)N1CCN(c2ncnc3c(F)c(-c4c(F)cccc4OCCCCCCCCCCCN4CCC(c5cc(F)cc6c5CN(C5CCC(=O)NC5=O)C6=O)CC4)c(Cl)cc23)CC1 (centres unmarked) ?
Response given: < 10%

Challenge: Can you look up the measured viability at 10 µM of C=C(Cl)C(=O)N1CCN(c2ncnc3c(F)c(-c4c(F)cccc4OCCOCc4ccc(COCCN5CCC(c6cc(F)cc7c6CN(C6CCC(=O)NC6=O)C7=O)CC5)cc4)c(Cl)cc23)CC1 (centres unmarked) for me?
Response given: < 10%

---

# Test system: H358 cells
# method_notes: Cell viability assay (CELLTITER-GLO), H358 cells
# Format: cell-based
# assay_setup: Table 4; 3 days
property_measured: Inhibition of H358 cells, IC50 (class)

Challenge: Look up Inhibition of H358 cells, IC50 (class) for this molecule: CCC(=O)N1CC(N2Cc3ccc(-c4cc(O)cc5ccccc45)cc3N(CCCCCCCN3CCC(c4cc(F)cc5c4CN(C4CCC(=O)NC4=O)C5=O)CC3)C2=O)C1 (stereo not drawn) [Compound 44]
Response given: C′

Challenge: Looking for the measured Inhibition of H358 cells, IC50 (class) of O=C1CCC(N2Cc3c(cc(F)cc3C3CCN(CCCCCCCOc4cccc(F)c4-c4c(Cl)cc5c(N6CCN(C(=O)C7CCOC7)CC6)ncnc5c4F)CC3)C2=O)C(=O)N1 (stereo not drawn) [Compound 54] , can you help?
Response given: C′

Challenge: // query Inhibition of H358 cells, IC50 (class) value for entry CCC(=O)Oc1cccc(F)c1-c1c(Cl)cc2c3c(cnc2c1F)N(CCCCCCCN1CCC(c2cc(F)cc4c2CN(C2CCC(=O)NC2=O)C4=O)CC1)C(=O)[C@H]1CN(C(=O)CC)[C@H](C)CN31 (stereo partly drawn) [Compound 95]
Response given: B′

---

# Test system: H358 cells
# method_notes: Cell viability assay (CELLTITER-GLO), H358 cells
# Assay type: cell-based
# assay_setup: Table 4; 3 days
property_measured: Inhibition of H358 cells, IC50 (class)

Previously resolved entries follow.
Challenge: Quick one: Inhibition of H358 cells, IC50 (class) for CCS(=O)(=O)N1CCN(c2ncnc3c(F)c(-c4c(F)cccc4OCCCCCCCN4CCC(c5cc(F)cc6c5CN(C5CCC(=O)NC5=O)C6=O)CC4)c(Cl)cc23)CC1 (centres unmarked) ?
Response given: B′

Challenge: Reported Inhibition of H358 cells, IC50 (class) for CCC(=O)N1C[C@@H]2C(=O)N(C)c3cnc4c(F)c(-c5c(F)cccc5OCCCCCCCN5CCC(c6cc(F)cc7c6CN(C6CCC(=O)NC6=O)C7=O)CC5)c(Cl)cc4c3N2C[C@H]1C (some centres unmarked) : what is it?
Response given: B′

Challenge: I'd like to know its Inhibition of H358 cells, IC50 (class). The compound in question is C=C(Cl)C(=O)N1CCN(c2ncnc3c(F)c(-c4c(F)cccc4OCCOCc4ccc(COCCN5CCC(c6cc(F)cc7c6CN(C6CCC(=O)NC6=O)C7=O)CC5)cc4)c(Cl)cc23)CC1 (centres unmarked)
Response given: A′

Challenge: I am curious: what Inhibition of H358 cells, IC50 (class) value has been reported for C=CC(=O)N1C[C@H](C)N(c2nc(OCCOCCOCCOCCNc3cccc4c3C(=O)N(C3CCC(=O)NC3=O)C4=O)nc3c(F)c(-c4c(O)cccc4F)c(Cl)cc23)C[C@H]1C (some centres unmarked) ?
Response given: B′

Challenge: Look at this compound and give its reported Inhibition of H358 cells, IC50 (class). C=CC(=O)N1CCN(c2ncnc3c(F)c(-c4c(F)cccc4OCCCNCc4ccc(COc5cccc6c5CN([C@H]5CCC(=O)NC5=O)C6=O)cc4)c(Cl)cc23)CC1
Response given: B′

Challenge: Please look up its Inhibition of H358 cells, IC50 (class): C=CC(=O)N1CCN(c2ncnc3c(F)c(-c4c(F)cccc4OCCCCCCCCCCC(=O)N[C@H](C(=O)N4C[C@H](O)C[C@H]4C(=O)NCc4ccc(-c5scnc5C)cc4)C(C)(C)C)c(Cl)cc23)CC1
Response given: B′

Challenge: Please give the measured Inhibition of H358 cells, IC50 (class) for this compound: C=CC(=O)N1CCN(c2ncnc3c(F)c(-c4c(F)cccc4OCCCCCCC(=O)N[C@H](C(=O)N4C[C@H](O)C[C@H]4C(=O)NCc4ccc(-c5scnc5C)cc4)C(C)(C)C)c(Cl)cc23)CC1
Response given: A′

Challenge: For the compound shown here, C=C(Cl)C(=O)N1CCN(c2nc(=O)n(-c3c(C)ccnc3C(C)C)c3nc(-c4c(F)cccc4OCCCCCCCN4CCC(c5cc(F)cc6c5CN(C5CCC(=O)NC5=O)C6=O)CC4)c(F)cc23)[C@@H](C)C1 (some centres unmarked) , give the reported Inhibition of H358 cells, IC50 (class).
Response given: A′

Challenge: // lookup Inhibition of H358 cells, IC50 (class) for O=C1CCC(N2Cc3c(cc(F)cc3C3CCN(CCCCCCCOc4cccc(F)c4-c4c(Cl)cc5c(N6CCN(C(=O)c7cnc[nH]7)CC6)ncnc5c4F)CC3)C2=O)C(=O)N1 (centres unmarked)
Response given: B′

Challenge: For the compound C=C(Cl)C(=O)N1CCN(c2ncnc3c(F)c(-c4c(F)cccc4OC[C@H]4CC[C@H](CN5CCC(c6cc(F)cc7c6CN(C6CCC(=O)NC6=O)C7=O)CC5)CC4)c(Cl)cc23)CC1 (some centres unmarked) , what Inhibition of H358 cells, IC50 (class) is on record?
Response given: A′

Now for another entry.
Challenge: GET /values?readout=Inhibition of H358 cells, IC50 (class)&item= C=C(Cl)C(=O)N1C[C@@H]2C(=O)N(C)c3cnc4c(F)c(-c5c(F)cccc5OCCCCCCCN5CCC(c6cc(F)cc7c6CN(C6CCC(=O)NC6=O)C7=O)CC5)c(Cl)cc4c3N2C[C@H]1C (some centres unmarked)
Response given: B′
